# targetOfAssay: T1, HuCTLA4-HuIgG1 (fusion protein of the extracellular part of human CD152 and human Fc gamma 1, CTLA4-Ig) (human, UniProt P16410 36-161)
# T1 construct: extracellular domain; also called CTLA4-hFc; CTLA4-Fc; not shown: human Fc gamma 1
# T1 sequence (P16410 36-161 limits assumed): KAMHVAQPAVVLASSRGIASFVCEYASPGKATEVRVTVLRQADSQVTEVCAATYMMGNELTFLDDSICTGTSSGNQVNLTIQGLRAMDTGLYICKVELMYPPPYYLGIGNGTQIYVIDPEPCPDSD
# test: SPR, Biacore T100, CTLA4-Ig amine-coupled
# label = class 1 if koff < 0.004 s⁻¹ else class 0

4CTLAPMP03C4 (VHH, short label tied to the entry by the clone code only; not shown: C-terminal c-myc tag and His6 tag) VHH: EVQLVESGGGLVQAGGSLRLSCAASGGTFSFYGMGWFRQAPGKEREFVADIRTSAGRTYYADSVKGRFTISRDNAKNTVYLQMNSLKPEDTAVYYCAAEMSGISGWDYWGQGTQVTVSS    class 0

Hello, is koff of the following binder strictly smaller than 0.004 s⁻¹? 4CTLAPMP08E5 (VHH, label 8E5.4 tied to 4CTLAPMP08E5 by the clone code only; the suffix .4 is not explained; also called 8E5.4; not shown: C-terminal c-myc tag and His6 tag) VHH: EVQLVESGGGLVQPGGSLRLSCAASRDIFTRNIMGWYRQAPGKQRDLVASITPGGNMYYADSVKGRFTISRDGAKNTVYLQMNSLKPEDTAVYYCNAHGSILLDRSNYWGQGTQVTVSS
class 1
